target: Human CARM1 (PRMT4) (Homo sapiens); construct: Flag-CARM1-His was eluted with 200 ug/ml FLAG peptide in buffer A; assay: CARM1 enzyme assay on peptide substrate (3H-SAM Flashplate); details: CARM1 0.25 nM, 3H-SAM 30 nM, peptide 250 nM; read-out: Biochem IC50
pIC50: −log10 of the molar value.
Measured metric: pIC50

CC(C)c1cnn2c(N3CCOCC3)cc(-c3cccc(OC[C@H](O)CN)c3)nc12 :: > 7.00

Hi, could you look up pIC50 for each item in my list?
1. CC(C)n1ncc2c(N3CCOCC3)cc(-c3cccc(CCC(O)CN)c3)nc21 (centres unmarked) [Example 13-9]
2. CNCC(O)COc1cccc(-c2cc(NCC#N)c3cnn(C(C)C)c3n2)c1 (centres unmarked)
3. CNCC(O)COc1cc(OC(F)(F)F)cc(-c2cc(NC3CCOCC3)c3cnn(C(C)C)c3n2)c1 (centres unmarked)
4. CNCC(O)COc1cccc(-c2cc(N(C)[C@H]3CCOC3)n3ncc(C(C)C)c3n2)c1 (some centres unmarked)
5. CNCC(O)COc1cccc(-c2nc(NCc3cn4ccsc4n3)c3cnn(C4CC4)c3n2)c1 (centres unmarked)

6.00 to 7.00
6.00 to 7.00
6.00 to 7.00
> 7.00
> 7.00

For every record below, what is its pIC50?
1. CCOC(=O)c1c(-c2cccc(OCC(O)CNC)c2)nc2c(cnn2C(C)C)c1N1CCOCC1 (centres unmarked)
2. CNCC(O)COc1cc(Cl)cc(-c2cc(N3C4CCC3COC4)n3ncc(C(C)C)c3n2)c1 (centres unmarked)
3. CC(C)(C)n1ncc2c(N3CCOCC3)nc(-c3cccc(OCC(O)CN)c3)nc21 (centres unmarked)
4. CNCC(O)COc1cccc(-c2cc(N3CCOCC3)c3c(C)nn(C(C)C)c3n2)c1 (centres unmarked)
5. CNCC(O)COc1cccc(-c2cc(NS(=O)(=O)N(C)C)c3cnn(C(C)C)c3n2)c1 (centres unmarked)

6.00 to 7.00
> 7.00
> 7.00
> 7.00
6.00 to 7.00

Report pIC50 for each item below.
1. Cc1cc(C)c(CNC(=O)c2cc(-c3cccc(OCC(O)CN)c3)nc3nn(C(C)C)cc23)c(=O)[nH]1 (centres unmarked)
2. NCC(O)COc1cccc(-c2nc(NCc3cccc4ccnn34)c3cnn(C4CC4)c3n2)c1 (centres unmarked)
3. CNCC(O)COc1cccc(-c2cc(N(C)CCOC)n3ncc(C(C)C)c3n2)c1 (centres unmarked)
4. CNCC(O)COc1cc(OC)cc(-c2cc(N(C)[C@@H]3CCOC3)n3ncc(C(C)C)c3n2)c1 (some centres unmarked)
5. CNCC(O)COc1cc(OC)cc(-c2cc(N3CCOCC3)n3ncc(C(C)C)c3n2)c1 (centres unmarked)

1. 6.00 to 7.00
2. > 7.00
3. > 7.00
4. > 7.00
5. > 7.00

====

target: Human CARM1 (PRMT4) (Homo sapiens, UniProt Q86X55); construct: Flag-CARM1-His was eluted with 200 ug/ml FLAG peptide in buffer A; made in house; host or cells: HEK 293F cells infected with recombinant baculovirus (pFastBacMam); test: CARM1 enzyme assay on peptide substrate (3H-SAM Flashplate); assay type: biochemical; conditions: CARM1 0.25 nM, 3H-SAM 30 nM, peptide 250 nM; read-out: Biochem IC50
Sequence (Q86X55 other isoform, or with tags, fused parts or gaps): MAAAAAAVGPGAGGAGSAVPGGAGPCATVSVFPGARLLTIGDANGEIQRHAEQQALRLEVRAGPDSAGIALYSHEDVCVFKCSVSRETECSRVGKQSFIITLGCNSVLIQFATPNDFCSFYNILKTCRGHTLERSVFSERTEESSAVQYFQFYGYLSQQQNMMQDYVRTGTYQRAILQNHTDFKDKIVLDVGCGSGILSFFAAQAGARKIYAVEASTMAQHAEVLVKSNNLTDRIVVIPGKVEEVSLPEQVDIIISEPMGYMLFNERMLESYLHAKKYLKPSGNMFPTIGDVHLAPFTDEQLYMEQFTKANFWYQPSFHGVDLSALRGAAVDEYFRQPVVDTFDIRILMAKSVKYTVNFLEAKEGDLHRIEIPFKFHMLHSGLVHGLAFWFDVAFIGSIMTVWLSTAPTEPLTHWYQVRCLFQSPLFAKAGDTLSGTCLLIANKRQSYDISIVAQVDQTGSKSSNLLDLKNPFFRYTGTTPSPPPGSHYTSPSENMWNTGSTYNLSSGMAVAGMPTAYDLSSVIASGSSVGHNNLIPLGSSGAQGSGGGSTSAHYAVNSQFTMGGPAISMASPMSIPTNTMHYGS
pIC50: −log10 of the molar value.
Please respond with reported pIC50 for every item in the list.

Give pIC50 for each listed item.
1. NCC(O)COc1cccc(-c2nc(NCc3ccncc3)c3cnn(C4CC4)c3n2)c1 (stereo not shown)
2. NCC(O)COc1cccc(-c2nc(NCc3nccs3)c3cnn(C4CC4)c3n2)c1 (stereo not shown)
3. CNCC(O)COc1cc(OC)cc(-c2cc(N(C)C3CCOCC3)n3ncc(C4CC4)c3n2)c1 (stereo not shown) [Example 44-6]
4. CC(C)n1ncc2c(N3CCOCC3)cc(-c3cc(OCC(O)CN)cc(OC(F)(F)F)c3)nc21 (stereo not shown)

["6.00 to 7.00", "> 7.00", "> 7.00", "6.00 to 7.00"]

I need pIC50 for every entry listed below, if you could help.
1. CNCC(O)COc1cccc(-c2cc(NC3CCOCC3)c3c(C)nn(C(C)C)c3n2)c1 (stereo not shown)
2. Cc1cc(C)c(CNc2nc(-c3cccc(OCC(O)CN)c3)nc3c2cnn3C2CC2)c(=O)[nH]1 (stereo not shown)
3. CNCC(O)COc1cccc(-c2nc(NCc3cccc4ccnn34)c3cnn(C4CC4)c3n2)c1 (stereo not shown)

1: > 7.00; 2: 6.00 to 7.00; 3: 6.00 to 7.00
